Parameter pKd: see the listing below.
biological target: HLA-B*51:01; assay: IEDB peptide-MHC binding, purified MHC/competitive/radioactivity; filed as Kd, often an IC50 or EC50 that approximates it; bounds were set here for any values at or beyond the usual limits of such assays; conditions: source organism: Dengue virus 4 Philippines/H241/1956
For clarity, pKd is expressed as the negative log10 of concentration in mol/L.

>  <Entry Sequence>
QPQWIAASII

>  <Test System>
HLA-B*51:01

>  <pKd>
6.14

$$$$

### Prompt State the recorded pKd for this entry: TPFAEYTNSV
### Response 6.09

* * *

biological target: HLA-B*45:06; assay: IEDB peptide-MHC binding, purified MHC/competitive/fluorescence; filed as Kd, often an IC50 or EC50 that approximates it; bounds were set here for any values at or beyond the usual limits of such assays; details: source organism: Homo sapiens
Recorded Metric: Kd

### Prompt Give the reported Kd for SVDSDHLGY (system: HLA-B*45:06).
### Response ≥ 5 µM
